Read-out: Intercellular Adhesion Molecule 1 (ICAM1), ICAM1 (gene 3383)
Test: BSK_BE3C_ICAM1: BioMAP Diversity Plus: BE3C Assay for Intercellular Adhesion Molecule 1 (ICAM1) Biomarker Activity (AID 2284278);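 further: cell-surface ICAM-1 protein level quantified by ELISA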
Settings: primary human bronchial epithelial cells
Experimental: BSK_BE3C is a cell-based, multiplexed-readout assay that uses bronchial epithelial cell, a human lung primary cell, with measurements taken at 24 hours after chemical dosing in a 96-well plate.BSK_BE3C_ICAM1 is an assay component measured in the BSK_BE3C assay. […] The levels of cell surface (or secreted, indicated by the prefix "s") biomarker endpoints were measured by ELISA. […] Plates were read after 6 h.
The source made the active and inactive calls. How the source made its calls: active means hit-call score of the fitted dose curve at least 0.9, where 1 is the maximum; inactive means score below 0.9.
measure: outcome

1) NCC(F)(F)C(F)(F)C(F)(F)C(F)(F)F = inactive
2) FC(F)=C(F)C(F)(F)C(F)(F)C(F)(F)C(F)(F)C(F)(F)C(F)(F)F = inactive
3) O=S(=O)(O)CCC(F)(F)C(F)(F)C(F)(F)C(F)(F)C(F)(F)C(F)(F)F = inactive
4) C[Si](C)(C)C(F)(F)C(F)(F)C(F)(F)F = inactive
5) O=C(Cl)C(F)(F)C(F)(F)C(F)(F)C(=O)Cl = inactive
6) OC(O)(C(F)C(O)(O)C(F)(F)F)C(F)(F)F = inactive
7) FC(F)C(F)(F)COCC1CO1 (configuration not stated) = inactive
